Each item that follows carries a reported 1° T cell proliferation, EC50, pM.
Biological target: T1, T cell IL-4 receptor (IL-4Rα/IL-2Rγ) (human, UniProt P24394 26-825; P31785 23-369)
T1 sequence (looked up) 1: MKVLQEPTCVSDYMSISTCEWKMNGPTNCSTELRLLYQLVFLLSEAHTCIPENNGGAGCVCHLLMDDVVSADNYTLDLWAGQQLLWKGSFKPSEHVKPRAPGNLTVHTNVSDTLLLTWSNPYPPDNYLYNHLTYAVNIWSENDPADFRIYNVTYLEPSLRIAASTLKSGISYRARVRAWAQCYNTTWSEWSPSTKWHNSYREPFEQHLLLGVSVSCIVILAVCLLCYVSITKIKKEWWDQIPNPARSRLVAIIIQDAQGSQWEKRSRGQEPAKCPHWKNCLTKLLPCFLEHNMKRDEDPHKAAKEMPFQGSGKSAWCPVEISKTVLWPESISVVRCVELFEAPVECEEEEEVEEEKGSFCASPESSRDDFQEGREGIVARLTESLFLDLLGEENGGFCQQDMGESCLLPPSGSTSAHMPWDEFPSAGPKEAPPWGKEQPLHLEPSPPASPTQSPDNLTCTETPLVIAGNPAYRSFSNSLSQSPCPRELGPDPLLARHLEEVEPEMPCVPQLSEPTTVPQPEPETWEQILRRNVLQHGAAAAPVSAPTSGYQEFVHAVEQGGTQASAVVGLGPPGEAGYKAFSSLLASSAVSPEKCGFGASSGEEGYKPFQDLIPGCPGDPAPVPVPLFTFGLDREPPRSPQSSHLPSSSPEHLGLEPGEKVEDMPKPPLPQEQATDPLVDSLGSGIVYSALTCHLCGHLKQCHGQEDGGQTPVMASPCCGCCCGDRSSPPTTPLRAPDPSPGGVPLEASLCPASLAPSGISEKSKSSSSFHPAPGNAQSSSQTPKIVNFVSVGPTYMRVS
T1 sequence (looked up) 2: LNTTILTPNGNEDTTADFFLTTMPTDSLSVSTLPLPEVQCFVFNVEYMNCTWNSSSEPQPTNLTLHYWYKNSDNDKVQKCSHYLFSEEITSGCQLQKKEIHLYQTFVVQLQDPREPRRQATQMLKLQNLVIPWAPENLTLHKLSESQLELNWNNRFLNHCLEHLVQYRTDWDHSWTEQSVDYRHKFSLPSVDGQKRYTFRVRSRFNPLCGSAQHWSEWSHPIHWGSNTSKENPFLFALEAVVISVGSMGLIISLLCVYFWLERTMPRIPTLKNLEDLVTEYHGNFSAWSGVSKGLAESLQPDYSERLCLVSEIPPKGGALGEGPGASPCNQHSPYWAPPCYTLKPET
Assay: cell-based or functional assay
Kindly answer with a numeric value in pM, unit omitted.

>  <binder>
IL-4 mutein R121F (ligand) HKCDITLQEIIKTLNSLTEQKTLCTELTVTDIFAASKNTTEKETFCRAATVLRQFYSHHEKDTRCLGATAQQFHRHKQLIRFLKRLDRNLWGLAGLNSCPVKEANQSTLENFLERLKTIMFEKYSKCSS

>  <unit.of.measurement>
pM

>  <1° T cell proliferation, EC50, pM>
150

$$$$
>  <binder>
IL-4 mutein Y124R (ligand) HKCDITLQEIIKTLNSLTEQKTLCTELTVTDIFAASKNTTEKETFCRAATVLRQFYSHHEKDTRCLGATAQQFHRHKQLIRFLKRLDRNLWGLAGLNSCPVKEANQSTLENFLERLKTIMREKRSKCSS

>  <unit.of.measurement>
pM

>  <1° T cell proliferation, EC50, pM>
750

$$$$
>  <binder>
IL-4 mutein R121E (ligand) HKCDITLQEIIKTLNSLTEQKTLCTELTVTDIFAASKNTTEKETFCRAATVLRQFYSHHEKDTRCLGATAQQFHRHKQLIRFLKRLDRNLWGLAGLNSCPVKEANQSTLENFLERLKTIMEEKYSKCSS

>  <unit.of.measurement>
pM

>  <1° T cell proliferation, EC50, pM>
65

$$$$
>  <binder>
IL-4 mutein R121A (ligand) HKCDITLQEIIKTLNSLTEQKTLCTELTVTDIFAASKNTTEKETFCRAATVLRQFYSHHEKDTRCLGATAQQFHRHKQLIRFLKRLDRNLWGLAGLNSCPVKEANQSTLENFLERLKTIMAEKYSKCSS

>  <unit.of.measurement>
pM

>  <1° T cell proliferation, EC50, pM>
150

$$$$

# input What does the data say about its 1° T cell proliferation, EC50, pM? Entry: IL-4 mutein Y124A/S125A (ligand) HKCDITLQEIIKTLNSLTEQKTLCTELTVTDIFAASKNTTEKETFCRAATVLRQFYSHHEKDTRCLGATAQQFHRHKQLIRFLKRLDRNLWGLAGLNSCPVKEANQSTLENFLERLKTIMREKAAKCSS
# output 600

# input What does the data say about its 1° T cell proliferation, EC50, pM? Entry: IL-4 mutein R121I (ligand) HKCDITLQEIIKTLNSLTEQKTLCTELTVTDIFAASKNTTEKETFCRAATVLRQFYSHHEKDTRCLGATAQQFHRHKQLIRFLKRLDRNLWGLAGLNSCPVKEANQSTLENFLERLKTIMIEKYSKCSS
# output 100

# input What does the data say about its 1° T cell proliferation, EC50, pM? Entry: IL-4 mutein R121T (ligand) HKCDITLQEIIKTLNSLTEQKTLCTELTVTDIFAASKNTTEKETFCRAATVLRQFYSHHEKDTRCLGATAQQFHRHKQLIRFLKRLDRNLWGLAGLNSCPVKEANQSTLENFLERLKTIMTEKYSKCSS
# output 150
